# System: ATP;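 note: ATP exposure 15 min at 22 °C before imaging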
# assay-method-text: switch fluorescence ratio, 500 uM ATP over buffer (Cy3 cluster intensity, sum of 5 cycles each) (fold (ratio)); higher = stronger signal-on switching upon ATP binding; sequences stand for … in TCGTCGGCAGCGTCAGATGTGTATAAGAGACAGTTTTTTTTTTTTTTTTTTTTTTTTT…TC
# condition-set: aptamer strand: ATP DNA aptamer (quencher-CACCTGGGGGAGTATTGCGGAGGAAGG + anchor), 100 nM annealed; ATP concentration: 500 uM
observation-type: switch fluorescence ratio

Field: example entries. Status: answers known.
TTGGTACTTA
0.995
GGGTGTAATT
1
TATAATCTGT
1.01
CAAGGAACGT
1.01
TTGACTGGAA
1.02
CGTTTCTGGG
1.01
GTGAGCCGGT
0.983
GGTTGGGGGG
1

Please report the measured switch fluorescence ratio for "CGTCGCCGGT" tested on ATP.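 Note: ATP exposure 15 min at 22 °C before imaging.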
1

Please report the measured switch fluorescence ratio for "GTGAAGAGGG" tested on ATP.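 Note: ATP exposure 15 min at 22 °C before imaging.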
0.998

Please report the measured switch fluorescence ratio for "ATTATCTAGG" tested on ATP.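 Note: ATP exposure 15 min at 22 °C before imaging.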
0.985

Please report the measured switch fluorescence ratio for "TTTGTCAGGG" tested on ATP.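 Note: ATP exposure 15 min at 22 °C before imaging.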
0.992

Please report the measured switch fluorescence ratio for "AAGGCTAAAA" tested on ATP.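 Note: ATP exposure 15 min at 22 °C before imaging.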
1.02

Please report the measured switch fluorescence ratio for "CATGTTTCTG" tested on ATP.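 Note: ATP exposure 15 min at 22 °C before imaging.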
0.993

====

# Test system: ATP;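 note: ATP exposure 15 min at 22 °C before imaging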
# assay-method-text: switch fluorescence ratio, 500 uM ATP over buffer (Cy3 cluster intensity, sum of 5 cycles each) (fold (ratio)); higher = stronger signal-on switching upon ATP binding; sequences stand for … in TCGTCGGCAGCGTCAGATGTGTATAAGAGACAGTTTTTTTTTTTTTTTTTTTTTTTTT…TC
# condition-set: aptamer strand: ATP DNA aptamer (quencher-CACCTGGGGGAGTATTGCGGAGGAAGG + anchor), 100 nM annealed; ATP concentration: 500 uM
observation-type: switch fluorescence ratio
Please give only the number in your answer, with no unit.

GAAAATTATA
1.02
GGTAGTTGGT
1.01
TGGACTTTTT
0.971
ATACCATGGT
0.992
CTTAAAGTTA
1.01
GACAACATTT
0.997
GGGATGGCAT
0.995
TGATTCTAAT
1
GGTTATCGGC
1.01
ACTTTTTTGA
1.01

Identify switch fluorescence ratio associated with the sequence "AAAAGGCTAA"
1

Identify switch fluorescence ratio associated with the sequence "TTTTTGATAG"
0.985

Identify switch fluorescence ratio associated with the sequence "TTTGGCTGAG"
1

Identify switch fluorescence ratio associated with the sequence "TGGGAAAGTT"
0.988

Identify switch fluorescence ratio associated with the sequence "TAAGAGGCCA"
1.02

Identify switch fluorescence ratio associated with the sequence "TTCTAATGGT"
1.01

Identify switch fluorescence ratio associated with the sequence "GGGGGTTTGC"
0.991

Identify switch fluorescence ratio associated with the sequence "TGGGGGGAG"
1.01

Identify switch fluorescence ratio associated with the sequence "AGGACCAGCA"
1.02

Identify switch fluorescence ratio associated with the sequence "TTATATGGGG"
1

Identify switch fluorescence ratio associated with the sequence "AAGAAGGTCC"
1.01

Identify switch fluorescence ratio associated with the sequence "AAAATTAGGT"
0.978

Identify switch fluorescence ratio associated with the sequence "TTGCTTATCG"
1.02

Identify switch fluorescence ratio associated with the sequence "TCTAAAGTGT"
0.983

Identify switch fluorescence ratio associated with the sequence "GATTCGGGGT"
1

Identify switch fluorescence ratio associated with the sequence "AGTGAGAATT"
1.01

Identify switch fluorescence ratio associated with the sequence "TTTTGGGGTA"
0.993

Identify switch fluorescence ratio associated with the sequence "TGGGGAACGC"
1.01

Identify switch fluorescence ratio associated with the sequence "TGGTGTGGGT"
0.989

Identify switch fluorescence ratio associated with the sequence "ACACAGTGCT"
1

Identify switch fluorescence ratio associated with the sequence "TGGGGGCACT"
0.982

Identify switch fluorescence ratio associated with the sequence "TTTTGGCTCC"
0.997
